Where do these numbers come from? They come from paper PMC8156151.

Experiment: Plasma pharmacokinetics, part 1 (healthy subjects)
Format: in vivo, human
Conditions: human, inhaled or intranasal, single inhaled 3 mg, mean±SD
MEASURED_PARAMETER: AUC(0-inf) (ng·h/mL)
Answer with a number only, understood to be in ng·h/mL.

Problem: So what's the measured AUC(0-inf) for this one? OC[C@H]1O[C@@H](S[C@@H]2O[C@H](CO)[C@H](O)[C@H](n3cc(-c4cccc(F)c4)nn3)[C@H]2O)[C@H](O)[C@@H](n2cc(-c3cccc(F)c3)nn2)[C@H]1O
Solution: 70.8

---

Assay: Plasma pharmacokinetics, part 2 (IPF patients)
Assay type: in vivo, human
Conditions: human, plasma, inhaled, 3 mg, IPF patients; plasma; Day 1; 3 mg once daily; mean±SD
MEASURED_PARAMETER: Cmax (ng/mL)
Answer with a number only, understood to be in ng/mL.

Problem: So what's the measured Cmax for this one? OC[C@H]1O[C@@H](S[C@@H]2O[C@H](CO)[C@H](O)[C@H](n3cc(-c4cccc(F)c4)nn3)[C@H]2O)[C@H](O)[C@@H](n2cc(-c3cccc(F)c3)nn2)[C@H]1O [TD139]
Solution: 10.6
